# System: K4 kissing-loop RNA reporter;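 further: bound reporter read as fluorescence of individual clusters on recovered sequencing chips by microscopy, with normalized cluster intensities fitted with a binding model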
# assay_explanation: apparent KD of K4 kissing-loop reporter; higher = weaker reporter binding
# condition_parameters: Eterna round: R107; input ligand: none
Below, each entry is listed with its recorded apparent KD of K4 kissing-loop reporter.
result_type: apparent KD of K4 kissing-loop reporter

chain_sequence	measured_result
AAAAUAAUCCAGUGAUGUUGGUAUCCAGAUACCAGCCACGAAAGUGGCCCUUGGCAGCUGUGGACGUACAAAAUAAGUACGUCCU [#OpenEnded 8 #StaticStem #K4Early]	0.729 µM
AUGUAUGAAUUAGGAUAUCGUGAUCCAUGCAUAUAUAUGAUAAAUGGAUAUGUCGUAGUGAUGUUACGAGAAGGAGUGUGGAGUA [KL-XFMN-B1]	0.0643 µM
CUAUAAGUGCCGAGUGAUGUUCGGCCAAUACGAGGACCGGUACGGCCGCCACUCGGUCAGUGAGUGCCCACCGGGCGUGGCUGAC [Leedgeis]	0.209 µM
UUAUACUCAUGUAAAGAACUAGUAACCGAAGGAGCGACAUAAAAGUCAGGUAGGUCGCGGAUUUCUCAGUGAUGUUGAGAGCAUU [JR_SSArginiA_Sub012]	0.121 µM
UUAUAACCCAGUGAUGUUGGGUAGCGGCCACGAGGACCGGUACGGCCGCCACUCGAGGUUUAACCAGUGAUGUUGGACUAUAUAA [Same state Tryptophan A GF 4]	0.047 µM
AAAAUAAACCAGUGAUGUUGGUGUGUAGAUACCAGCGACGAAAGUCGCCCUUGGCAGCUGUGGACGUACAAAAUAAGUACGUCCU [MatMod 23 - Jieux - Same State - Theophylline A]	0.35 µM
CCGGCCCGGCCGGAUACCAGUGCGCCGCUGUGAACUGCGGGCCCAGAGUGAUGUUCGGGACACCCUUGGCAGCCGCCUGGGUCGC [#2 Same State - Theophylline B Attempt #26 (HarryS)]	0.444 µM
AGGAUCACGUCAGUGAUGUUGACAAGAGAUACCAGAGACGAAAGUCUCCCUUGGCAGCUCACUGUGAUCCGUGACAAAGGUCACA [Omei KL hio A SS C v1]	0.0983 µM
AAAGAAGUAUACUUCAAGAGGUAUGCUGAUACCAGAGUCAAUUGACUCCCUUGGCAGCGGAUCGAGUGAUGUUCGUAACCUCAAA [AK3 SS Theophylline A]	0.153 µM
UUUAAAUAUAGUGAUGUUAUAUAACAAUGACGAGGACCGGUACGGCCGCCACUCGAGAGAGAUAAUGGUCAUACAAAUGUAUGUU [AstrosSSTryA#10]	0.738 µM
GGUAGCAUGGCGGCCGCCACUGGAGAGUGAUGUUCUCCACUAGGUUACAACGCCGGACAGUCCACCAGGACCGGGCCAUGCUACC	0.131 µM
AGUACGGACGCGGCCGCCACUCAGGAGAAGAAGGUAGUGAUGUUGCUUAUGGAGAGAUCAAUCAAGAGGACCGGGUGCCGUGCAA [#07 K4 Tryptophan B Same State]	0.426 µM

====

# Test system: MS2 coat protein
# assay_explanation: apparent KD of MS2 coat protein; higher = weaker reporter binding
# condition_parameters: Eterna round: R107; input ligand: none
Below, each entry is listed with its recorded apparent KD of MS2 coat protein.

chain_sequence	target_system	apparent KD of MS2 coat protein (nM)
UCGUAGCUAGGAAGGAGCGCAUACUUCACAUGAGGAUCACCCAUGUCGAGACGUGAGUCAGUGCAGGUAGGUCGCCUAGCUAUGA [Same State - Arginine B (Freestyle 26)]	MS2 coat protein	17.6
ACACGAAGCUGAAGGAGCGUGGUACAAGUUUUUACAUGAGGAUCACCCAUGUUUCGUCAAUCACAGGUAGGUCGCAGAUGCGUGA [#08 Same State - Arginine B]	MS2 coat protein	29.2
GGUUGGUUUAUAUAUAGAUUGAUUACUGAAGGAGCGGGAAAUAACCCAGGUAGGUCGCAGAGAUCCACAUGAGGAUCACCCAUGU [!0.I]	MS2 coat protein	39.5
